ASSAY REMARKS: chemical genetic growth profiling, strain panel (AID 1159580);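 further: tested at 20 µM; growth read once vehicle control cultures reached saturation at 30 °C; 1 = growth at the plate median or of vehicle wells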
EXPERIMENTAL SETUP: S. cerevisiae deletion strains, growth OD, locus YDL101C, strain DUN1, stronger effect = lower value
Among all 5,500 compounds or so, about 2,000 (36%) were called active. About 18% were inconclusive and are not listed. The list shows a part of the results.
READOUT NAME: normalized growth

C=C/C(C)=C\CC1C(C)(O)CCC2C(C)(C)CCCC21C (configuration not stated) ... 0.0723 (active)
COc1cccc(NC(=S)NC2CC(C)CC(C)(C)C2)c1 (configuration not stated) ... 0.975 (inactive)
C[C@@H]1CC[C@]2(C(=O)O)CC[C@]3(C)C(=CCC4[C@@]5(C)CC[C@H](O)C(C)(C)C5CC[C@]43C)C2[C@H]1C (some centres not stated) ... 1.03 (inactive)
CC(=O)/C=C\[C@@H]1[C@@]2(C)CCCC(C)(C)C2CC[C@@]1(C)O (some centres not stated) ... 0.952 (inactive)
O=C(O)/C=C/C(=O)Nc1ccc(-n2nc(C(F)(F)F)cc2C(F)(F)F)cc1 ... 0.97 (inactive)
S=C(NNC(=S)NC1CC2C=CC1C2)Nc1ccc(Br)c(Cl)c1 (configuration not stated) ... 0.989 (inactive)

Proceed to the following item.
## Input Endpoint output: normalized growth of C[C@@H]1OC(O[C@H]2[C@H](OC(=O)[C@]34CCC(C)(C)CC3C3=CCC5[C@@]6(C)CC[C@H](OC7O[C@@H](C)[C@H](O[C@@H]8OC[C@@H](O)[C@H](O)[C@H]8O)[C@@H](O)[C@H]7O)C(C)(C)C6CC[C@@]5(C)[C@]3(C)CC4O)OC[C@H](O)[C@H]2O)[C@H](O)[C@H](O)[C@H]1O[C@@H]1O[C@H](CO)[C@@H](O)[C@H](O)[C@H]1O (some centres not stated) . Value?
## Output 0.984 (inactive)

* * *

ASSAY REMARKS: chemical genetic growth profiling, strain panel (AID 1159580);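 further: tested at 20 µM; growth read once vehicle control cultures reached saturation at 30 °C; 1 = growth at the plate median or of vehicle wells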
EXPERIMENTAL SETUP: S. cerevisiae deletion strains, growth OD, locus YJL129C, strain trk1, stronger effect = lower value
Hit rate of the full screen: of about 5,500 compounds, about 2,000 (36%) were called active. Another 18% or so got no clear call; they are omitted. This is one part of the list.
READOUT NAME: normalized growth

Consider the reported normalized growth for these compounds:
CCN1C[C@]2(OC(=O)c3ccccc3NC(C)=O)CCC(OC)[C@]34C1[C@H](CC23)[C@@]1(O)CC(OC)[C@H]2CC4C1(O)[C@H]2OC (stereo partly drawn) ... 0.961 (inactive)
Nc1ccc(S(=O)(=O)c2ccc(N)cc2)cc1 ... 0.991 (inactive)

## Input Endpoint output: normalized growth of N#CC(O[C@@H]1O[C@H](CO[C@@H]2O[C@H](CO)[C@@H](O)[C@H](O)[C@H]2O)[C@@H](O)[C@H](O)[C@H]1O)c1ccccc1 (stereo partly drawn) . Value?
## Output 0.967 (inactive)

## Input Endpoint output: normalized growth of CO[C@@]12[C@@H]3NC3CN1C1=C(C(=O)C(N)=C(C)C1=O)[C@@H]2COC(N)=O (stereo partly drawn) . Value?
## Output 0.96 (inactive)

## Input Endpoint output: normalized growth of C/C=C1\[C@H]2C=C(C)C[C@]1(N)c1ccc(=O)[nH]c1C2 . Value?
## Output 1.02 (inactive)

## Input Endpoint output: normalized growth of COc1cc(C(=O)NCCCCCC(=O)O)cc(OC)c1OC . Value?
## Output 0.999 (inactive)

## Input Endpoint output: normalized growth of NC(N)=N/N=C/c1c(Cl)cccc1Cl . Value?
## Output 1.03 (inactive)

## Input Endpoint output: normalized growth of OC(CCN1CCCCC1)(c1ccccc1)C1CC2C=CC1C2 (stereo not drawn) . Value?
## Output 0.987 (inactive)

* * *

ASSAY REMARKS: chemical genetic growth profiling, strain panel (AID 1159580);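 further: tested at 20 µM; growth read once vehicle control cultures reached saturation at 30 °C; 1 = growth at the plate median or of vehicle wells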
EXPERIMENTAL SETUP: S. cerevisiae deletion strains, growth OD, locus YDL185W, strain tfp1
In all, about 5,500 compounds went through this assay and about 2,000 (36%) were called active. Roughly 18% stayed inconclusive and do not appear here. No stated cut-off is given here; in the data, active means normalized growth mostly below about 0.91 (no sharp cut-off); inconclusive means no clear call, values can overlap the other calls; inactive means mostly above about 0.92. The list shows a part of the results.
Parameter call: string, one of active, inactive

CC(C)=CCCC1(C)C=Cc2c(O)c3c(c(CC=C(C)C)c2O1)OC12C(=CC4CC1C(C)(C)OC2(C/C=C(/C)C(=O)O)C4O)C3=O (stereo not drawn) ... inactive
CC(C)(Oc1ccc(CCNC(=O)c2ccc(Cl)cc2)cc1)C(=O)O ... inactive
Nc1ccc(S(=O)(=O)c2ccc(N)cc2)cc1 ... inactive
CC(C)=CCCC1(C)C=Cc2c(O)c3c(c(CC=C(C)C)c2O1)OC12C(=CC4CC1C(C)(C)OC2(C/C=C(/C)C(=O)O)C4=O)C3=O (stereo not drawn) ... inactive

## Input Please indicate how the test categorized CC1=CCC2C3(C)C1=CC(=O)OC3CC1C(C)(C)CC(O)C(O)C12C (stereo not drawn) .
## Output inactive

## Input Please indicate how the test categorized Cc1ccnc(NS(=O)(=O)c2ccc(N)cc2)n1 .
## Output inactive

## Input Please indicate how the test categorized CO[C@@]12[C@@H]3NC3CN1C1=C(C(=O)C(N)=C(C)C1=O)[C@@H]2COC(N)=O (stereo partly drawn) .
## Output inactive

## Input Please indicate how the test categorized NNC(=O)c1ccncc1 .
## Output inactive

## Input Please indicate how the test categorized CC(C)=CCCC1(C)C=Cc2c(O)c3c(c(CC=C(C)C)c2O1)OC12C(=CC4CC1C(C)(C)OC2(C/C=C(\C)C(N)=O)C4=O)C3=O (stereo not drawn) .
## Output inactive

## Input Please indicate how the test categorized Fc1ccc(C(c2ccccc2)(c2ccccc2F)n2ccnc2)cc1 (stereo not drawn) .
## Output active

## Input Please indicate how the test categorized N#CC(O[C@@H]1O[C@H](CO[C@@H]2O[C@H](CO)[C@@H](O)[C@H](O)[C@H]2O)[C@@H](O)[C@H](O)[C@H]1O)c1ccccc1 (stereo partly drawn) .
## Output inactive

## Input Please indicate how the test categorized O=c1oc2cc(O)ccc2s1 .
## Output inactive

## Input Please indicate how the test categorized O=C(COc1ccc(Cl)cc1)N1CCN(Cc2ccc3c(c2)OCO3)CC1 .
## Output inactive

## Input Please indicate how the test categorized CCC(C)C(=O)O[C@H]1[C@H](O)C2C(CN3CC(C)CCC3[C@@]2(C)O)C2C[C@]34O[C@]5(O)C(OC(=O)C(C)(O)CC)CC[C@@]3(C)C5C(OC(C)=O)[C@@H](OC(C)=O)C4[C@@]21O (stereo partly drawn) .
## Output inactive

## Input Please indicate how the test categorized NC(N)=N/N=C/c1c(Cl)cccc1Cl .
## Output inactive

## Input Please indicate how the test categorized CC(C)=CCCC1(C)C=Cc2c(O)c3c(c(CC=C(C)C)c2O1)OC12C(=CCCC1C(C)(C)O[C@@]2(C/C=C(\C)C(=O)O)C(=O)O)C3=O (stereo partly drawn) .
## Output inactive

## Input Please indicate how the test categorized C/C=C(/C)C(=O)OC1CCC2(C)C3CCC4C5(O)CC(O)C6(O)C(CN7CC(C)CCC7C6(C)O)C5(O)CC42OC13O (stereo not drawn) .
## Output inactive

## Input Please indicate how the test categorized CNC(=O)O/N=C\C(C)(C)SC .
## Output inactive

* * *

ASSAY REMARKS: chemical genetic growth profiling, strain panel (AID 1159580);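 further: tested at 20 µM; growth read once vehicle control cultures reached saturation at 30 °C; 1 = growth at the plate median or of vehicle wells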
EXPERIMENTAL SETUP: S. cerevisiae deletion strains, growth OD, locus YNL248C, strain rpa49, stronger effect = lower value
Hit rate of the full screen: of about 5,500 compounds, about 2,000 (36%) were called active. Another 18% or so got no clear call; they are omitted. The list shows a part of the results.
Param label: returns true when normalized growth < 1, returns false otherwise, including exact equality.

Some solved entries appear below for comparison.
Nc1c2ccccc2nc2ccccc12 (tested in a mixture with another compound) ... true
C[C@@H]1OC(O[C@H]2C(O[C@H]3CC[C@@]4(C)C(CC[C@]5(C)C4CC=C4C6CC(C)(C)CC[C@]6(C(=O)O)CC[C@]45C)[C@]3(C)CO)OC[C@H](O)[C@@H]2O)[C@H](O)[C@H](O)[C@H]1O (some centres undefined) ... true

## Input I'd appreciate it if you could check whether CC1OC(=O)C(C(C)C)NC(=O)C(C(C)C)OC(=O)C(C(C)C)NC(=O)C(C)OC(=O)C(C(C)C)NC(=O)C(C(C)C)OC(=O)C(C(C)C)NC(=O)C(C)OC(=O)C(C(C)C)NC(=O)C(C(C)C)OC(=O)C(C(C)C)NC1=O (centres undefined) has normalized growth smaller than 1.
## Output true

## Input I'd appreciate it if you could check whether O=C1c2c(O)cccc2Cc2cccc(O)c21 has normalized growth smaller than 1.
## Output true

## Input I'd appreciate it if you could check whether Nc1c2ccccc2nc2ccccc12 has normalized growth smaller than 1.
## Output true
